Read-out: Vascular endothelial growth factor receptor 2 (Homo sapiens) (UniProt P35968)
Test: BSK_4H_VEGFRII: BioMAP Diversity Plus: 4H Assay for Vascular endothelial growth factor receptor 2 (VEGFR2) Biomarker Activity (AID 2283031)
Details: primary human endothelial cells (HUVEC); actives raise or lower the signal
Calls of active or inactive are those of the source. Rule for the calls: active = hit-call score of the fitted dose curve at least 0.9, where 1 is the maximum; inactive = score below 0.9.
Parameter call: string, one of Y = active, N = inactive

Example entries begin here.
>  <compound>
[Cl][Sn]([c]1ccccc1)([c]1ccccc1)[c]1ccccc1

>  <className>
N

$$$$
>  <compound>
Oc1cc(Cl)c(Cl)cc1Cl

>  <className>
Y

$$$$
>  <compound>
N#CCCC(Br)(C#N)CBr (stereo unspecified)

>  <className>
Y

$$$$

IN: Please let me know the test result on file for `CCOC(=O)CCN(SN(C)C(=O)Oc1cccc2c1OC(C)(C)C2)C(C)C` .
OUT: N

IN: Please let me know the test result on file for `c1ccc(-c2cccc(-c3ccccc3)c2)cc1` .
OUT: Y

IN: Please let me know the test result on file for `Cc1cc(C(C)(C)c2ccc(O)c(C)c2)ccc1O` .
OUT: N
